Biological target: T1, TGFβ2 (transforming growth factor beta 2) (Homo sapiens, UniProt P61812 SEQ:1-112)
T1 sequence: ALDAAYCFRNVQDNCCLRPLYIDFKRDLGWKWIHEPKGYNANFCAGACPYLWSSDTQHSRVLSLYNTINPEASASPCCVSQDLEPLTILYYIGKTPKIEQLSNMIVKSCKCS
Test: filter
Conditions: chain copies: 2 (homodimer, stated)
ATTRIBUTE_MEASURED: binding result

8.2 (ssRNA, 2'-F C and U; 2'-OH A and G) RNA: GGGAGGACGAUGCGGAAGUAACGUUUAAGUAAAAUUCGUUCUCUCGGUAUUUGGCCAGACGACUCGCCCGA	binds
8.12 (ssRNA, 2'-F C and U; 2'-OH A and G) RNA: GGGAGGACGAUGCGGUCCAUCAACAAUCUUAUCAUUAUGUUUUUCCUUCCCGCCCCAGACGACUCGCCCGA	no binding
8.35 (ssRNA, 2'-F C and U; 2'-OH A and G) RNA: GGGAGGACGAUGCGGAUCCUAUCCUCUGAAUAUCAUUAAAUCAUCUUCUCCGCCCCAGACGACUCGCCCGA	no binding
